TARGET: PI3-kinase p110-delta/p85-alpha (Homo sapiens)
Sequence (P27986 whole entry): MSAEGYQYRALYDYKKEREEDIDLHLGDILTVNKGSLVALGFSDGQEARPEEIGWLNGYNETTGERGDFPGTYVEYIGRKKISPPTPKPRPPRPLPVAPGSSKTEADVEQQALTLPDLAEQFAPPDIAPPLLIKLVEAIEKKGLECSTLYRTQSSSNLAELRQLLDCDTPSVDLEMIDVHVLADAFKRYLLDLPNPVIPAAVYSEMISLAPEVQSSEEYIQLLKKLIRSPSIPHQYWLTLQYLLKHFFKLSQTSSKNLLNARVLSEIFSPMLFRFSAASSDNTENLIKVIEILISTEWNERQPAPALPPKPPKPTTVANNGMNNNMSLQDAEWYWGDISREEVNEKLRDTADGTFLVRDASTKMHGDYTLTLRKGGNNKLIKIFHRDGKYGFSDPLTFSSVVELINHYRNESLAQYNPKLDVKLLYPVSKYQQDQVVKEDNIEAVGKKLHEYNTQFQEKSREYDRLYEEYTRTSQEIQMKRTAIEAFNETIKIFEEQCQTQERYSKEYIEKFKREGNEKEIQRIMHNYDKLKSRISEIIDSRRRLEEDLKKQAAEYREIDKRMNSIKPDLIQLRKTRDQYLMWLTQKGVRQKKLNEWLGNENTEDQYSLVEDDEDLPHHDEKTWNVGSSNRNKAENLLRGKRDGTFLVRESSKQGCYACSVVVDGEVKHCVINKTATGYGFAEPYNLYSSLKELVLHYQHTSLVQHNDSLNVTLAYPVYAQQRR
Sequence (O00329 whole entry): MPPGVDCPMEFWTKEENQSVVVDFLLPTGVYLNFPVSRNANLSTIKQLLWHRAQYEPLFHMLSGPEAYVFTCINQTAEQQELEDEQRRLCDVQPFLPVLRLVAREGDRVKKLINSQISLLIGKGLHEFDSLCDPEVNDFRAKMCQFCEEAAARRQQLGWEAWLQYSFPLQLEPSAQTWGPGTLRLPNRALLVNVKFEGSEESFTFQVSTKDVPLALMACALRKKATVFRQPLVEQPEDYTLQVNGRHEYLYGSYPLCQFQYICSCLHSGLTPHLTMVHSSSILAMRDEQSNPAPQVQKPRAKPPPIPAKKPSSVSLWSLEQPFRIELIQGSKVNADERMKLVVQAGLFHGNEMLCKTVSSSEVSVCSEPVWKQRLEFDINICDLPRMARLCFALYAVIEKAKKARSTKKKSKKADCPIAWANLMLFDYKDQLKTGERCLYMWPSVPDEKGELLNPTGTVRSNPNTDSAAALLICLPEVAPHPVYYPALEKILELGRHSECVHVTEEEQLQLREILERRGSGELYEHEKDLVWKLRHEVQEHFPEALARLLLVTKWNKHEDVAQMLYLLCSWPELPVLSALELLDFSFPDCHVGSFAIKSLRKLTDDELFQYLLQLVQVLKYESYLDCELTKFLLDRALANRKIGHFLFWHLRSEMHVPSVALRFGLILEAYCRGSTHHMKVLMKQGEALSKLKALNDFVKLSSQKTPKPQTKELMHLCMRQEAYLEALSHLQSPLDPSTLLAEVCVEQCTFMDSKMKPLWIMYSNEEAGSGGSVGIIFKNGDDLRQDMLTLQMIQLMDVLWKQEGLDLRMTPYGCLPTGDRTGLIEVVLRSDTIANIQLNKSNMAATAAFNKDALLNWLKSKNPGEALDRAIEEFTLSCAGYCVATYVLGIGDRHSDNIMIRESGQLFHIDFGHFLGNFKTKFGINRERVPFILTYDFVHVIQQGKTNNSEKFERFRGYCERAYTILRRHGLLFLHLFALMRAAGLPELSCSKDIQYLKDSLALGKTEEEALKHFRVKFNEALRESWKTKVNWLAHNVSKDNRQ
PROCEDURE_SUMMARY: Inhibition of p110delta/p85alpha (unknown origin) using L-alpha-phosphatidylinositol incubated for 40 mins by ADP depletion detection based luciferase assay
pIC50: −log10 of the molar value.
ASSAY_METRIC: pIC50

# MOLECULE_SMILES, ASSAY_METRIC, MEASUREMENT
measured = [
    ("COc1cc2nc(-c3cc(OC(F)(F)F)cc(C(N)=O)c3)nc(N3CCOCC3)c2cc1OC", "pIC50", 6.48),
    ("COc1cc2nc(-c3cc(O)cc(C(N)=O)c3)nc(N3CCOCC3)c2cc1OC", "pIC50", 6.59),
]

----------
PROCEDURE_SUMMARY: Antiproliferative activity against human HCT116 cells after 72 hrs by MTT assay
Format: functional, cell-based
TEST_CONDITIONS: HCT-116, 72 h
As shown below, each of these compounds has a reported IC50 value.
ASSAY_METRIC: IC50 (µM)

# MOLECULE_SMILES, UNIT, MEASUREMENT
data = [
    ("COc1cc2nc(-c3cccc(C(=O)O)c3)nc(N3CCOCC3)c2cc1OC", "µM", 12.5),
    ("COCCOc1cc2c(N3CCOCC3)nc(-c3cc(OC)cc(C(N)=O)c3)nc2cc1OC", "µM", 0.89),
    ("COc1cc2nc(-c3cccc(NC(C)=O)c3)nc(N3CCOCC3)c2cc1OC", "µM", 1.42),
    ("COc1cc2nc(-c3ccc(OC)c(C(N)=O)c3)nc(N3CCOCC3)c2cc1OC", "µM", 0.47),
    ("COc1cc2nc(-c3cc(C(N)=O)cc(C(F)(F)F)c3)nc(N3CCOCC3)c2cc1OC", "µM", 0.71),
    ("COc1cc(C(N)=O)cc(-c2nc(N3CCOCC3)c3cc(OC)c(OCc4ccccc4)cc3n2)c1", "µM", 6.45),
    ("COc1cc(C(N)=O)cc(-c2nc(N3CCOCC3)c3cc(OC)c(OCCN4CCOCC4)cc3n2)c1", "µM", 4.72),
    ("COc1cc(C(N)=O)cc(-c2nc(N3CCOCC3)c3cc(OC)c(OCCN4CCCC4)cc3n2)c1", "µM", 0.81),
    ("COc1cc2nc(-c3cc(OCc4ccccc4)cc(C(N)=O)c3)nc(N3CCOCC3)c2cc1OC", "µM", 3.83),
    ("COc1cc(C(N)=O)cc(-c2nc(N3CCOCC3)c3cc(OC)c(OC)cc3n2)c1", "µM", 0.45),
    ("COc1cc2nc(-c3ccc(Cl)c(C(N)=O)c3)nc(N3CCOCC3)c2cc1OC", "µM", 2.97),
    ("COc1cc2nc(-c3cc(O)cc(C(N)=O)c3)nc(N3CCOCC3)c2cc1OC", "µM", 0.88),
    ("COc1cc(C(N)=O)cc(-c2nc(N3CCOCC3)c3cc(OC)c(OCC(=O)N4CCN(C)CC4)cc3n2)c1", "µM", 9.44),
    ("COc1cc2nc(-c3cc(OC(F)(F)F)cc(C(N)=O)c3)nc(N3CCOCC3)c2cc1OC", "µM", 0.3),
    ("COc1cc(C(N)=O)cc(-c2nc(N3CCOCC3)c3cc(OC)c(OCC(=O)N4CCOCC4)cc3n2)c1", "µM", 6.48),
    ("COc1cc2nc(-c3ccc(C(N)=O)cc3)nc(N3CCOCC3)c2cc1OC", "µM", 1.25),
    ("COc1cc2nc(-c3cccc(C(=O)N(C)C)c3)nc(N3CCOCC3)c2cc1OC", "µM", 4.73),
    ("COc1cc2nc(-c3ccc(NC(C)=O)cc3)nc(N3CCOCC3)c2cc1OC", "µM", 1.09),
    ("COc1cc(C(N)=O)cc(-c2nc(N3CCOCC3)c3cc(OC)c(OCCN4CCCCC4)cc3n2)c1", "µM", 1.28),
    ("COC(=O)c1cccc(-c2nc(N3CCOCC3)c3cc(OC)c(OC)cc3n2)c1", "µM", 1.07),
    ("COc1cc2nc(-c3cnc(N)nc3)nc(N3CCOCC3)c2cc1OC", "µM", 0.42),
]

----------
As shown below, each of these compounds has a reported pIC50 value.
PROCEDURE_SUMMARY: Antiproliferative activity against human HCT116 cells after 72 hrs by MTT assay
Type: functional, cell-based
TEST_CONDITIONS: HCT-116, 72 h
pIC50: −log10 of the molar value.

# MOLECULE_SMILES, pIC50
records = [
    ("COc1cc2nc(-c3ccc(O)c(C(N)=O)c3)nc(N3CCOCC3)c2cc1OC", 5.56),
    ("CS(=O)(=O)N1CCN(Cc2cc3nc(-c4cccc5[nH]ncc45)nc(N4CCOCC4)c3s2)CC1", 6.43),
    ("COCCOc1cc2nc(-c3cc(OC)cc(C(N)=O)c3)nc(N3CCOCC3)c2cc1OCCOC", 5.04),
    ("COc1cc2nc(-c3ccc(OCc4ccccc4)c(C(N)=O)c3)nc(N3CCOCC3)c2cc1OC", 5.30),
    ("COc1cc(C(N)=O)cc(-c2nc(N3CCOCC3)c3cc(OC)c(OCC4CCOCC4)cc3n2)c1", 5.50),
    ("COc1cc2nc(-c3cccc(C(N)=O)c3)nc(N3CCOCC3)c2cc1OC", 6.05),
    ("CNC(=O)COc1cc2nc(-c3cc(OC)cc(C(N)=O)c3)nc(N3CCOCC3)c2cc1OC", 4.66),
    ("CNC(=O)c1cccc(-c2nc(N3CCOCC3)c3cc(OC)c(OC)cc3n2)c1", 5.60),
    ("COCCOc1cc2nc(-c3cc(OC)cc(C(N)=O)c3)nc(N3CCOCC3)c2cc1OC", 5.57),
]
